# System: OVCAR-8 ovarian
# test-protocol: NCI-60 one-dose screen, 48 h (100 = growth as untreated, 0 = no growth, -100 = all killed)
# setup-conditions: 10 µM unless noted
Compounds without any hit were thinned out: in the full panel of roughly 83,000, 20% have a hit.
observed-property: growth (%)
Lab book: enter the figure in %, no units written.

Use the examples below as a reference point.
1. COc1cc(C=C2C(=O)NC(=O)NC2=O)ccc1O :: 93.7
2. CN1CCN(c2ccc(Cl)cc2)CC1 :: 72.5

## Task # query: growth of entry O=C1C=C(N2CC2)c2ccccc2C1=O
## Result 73.2

## Task # query: growth of entry O=[N+]([O-])c1ccc(OCc2ccc(S(=O)(=O)F)c(Cl)c2)c(Cl)c1
## Result 105

## Task # query: growth of entry Cc1ccc(C(=O)O[C@H](C(=O)O)[C@H](OC(=O)c2ccc(C)cc2)C(=O)O)cc1
## Result 98.8

----------
# Tested on: HT29 colon
# test-protocol: NCI-60 one-dose screen, 48 h
# setup-conditions: 10 µM unless noted
About 83,000 compounds went through this panel and 20% of them were active in at least one assay; those are over-represented in the sample as a whole. Activity calls are given as the source filed them. How the source made its calls: active means growth percent below 10; inactive means the rest.
Select the correct class. Options are yes for active, no for inactive and nothing else.

1) CCC1(CCSC#N)C(=O)NC(=O)NC1=O :: no
2) COC(=O)[C@@H](C)C[C@H](Cc1ccccc1)NC(=O)c1cccc([C@@H](C[C@H](C(C)C)N(C)C(=O)[C@@H](NC(=O)[C@H]2CCCCN2C)C2CC2)OC(C)=O)n1 :: yes
3) Cc1cc(N)ccc1N :: no
4) CCN(CC)CCn1c(=O)n(C)c2ccccc21 :: no
5) COC(=O)CCP(CCC(=O)OC)c1ccccc1 :: no
6) C[N+]12CCC34C5=CC(=O)C(=O)C=C5[N+]5(C)C(=O)CC6OCC=C(C1)C(CC32)C6C45 (centres undefined) :: no

## Task I'd appreciate the recorded outcome for C/C=C(/C)C(=O)O[C@H]1CC[C@@]2(C)[C@@H]3CC[C@H]4[C@]5(O)C[C@H](O)[C@@]6(O)[C@@H](CN7C[C@@H](C)CC[C@H]7[C@@]6(C)O)[C@]5(O)C[C@@]42O[C@@]13O from this test.
## Result no

## Task I'd appreciate the recorded outcome for O=S(=O)(F)c1cccc(Cl)c1C[P+](c1ccccc1)(c1ccccc1)c1ccccc1 from this test.
## Result no

## Task I'd appreciate the recorded outcome for Cc1cc(Br)c([N+](=O)[O-])cc1[N+](=O)[O-] from this test.
## Result no

----------
# Tested on: MDA-MB-231 breast
# test-protocol: NCI-60 one-dose screen, 48 h (100 = growth as untreated, 0 = no growth, -100 = all killed)
# setup-conditions: 10 µM unless noted
# Description: Cells are grown in 96 well plates and exposed to the test compound for 48 hours. Compounds are tested at a single concentration, which is 10^-5 M for most compounds. The reported endpoint is percent growth (GI% or GIPRCNT), where numbers from 0 - 100% represent growth inhibition, and numbers from -100% - 0 represent cell death. For example, a value of 40 represents 60% growth inhibition. A value of 0 means no net growth occurred over the course of the experiment. […]
This is part of a sample that, as a whole, favours compounds with a hit. Of some 83,000 tested, about 20% had one in any assay.
Classification field: 1.0 = growth at or over 60%; 0.0 = growth under 60%.

Worked cases, answers included:
1) COc1cc2c(cc1OC)-c1c3c(cc4c1[C@@H](C2)N(C)CC4)OCO3 :: 0.0
2) CCCCOC(N)=O :: 1.0
3) C[C@@H]1C/C=C\C(=O)O[C@H](/C=C/C#C/C=C/C(C)(C)[C@@H](O)c2cccc(O)c2Br)[C@@H](C)/C=C/[C@H](C)C[C@H](OC(N)=O)C1 :: 0.0
4) CC1(C)N(Nc2ccccc2)C(=O)C2CCCN21 (centres undefined) :: 1.0
5) COc1cc(C=C2C(=O)NC(=O)NC2=O)ccc1O :: 1.0
6) CN1[C@@H](CC(=O)c2ccccc2)CCC[C@H]1CC(=O)c1ccccc1 :: 1.0
7) C/C(=C\c1ccn(-c2ccc(N)c(C(F)(F)F)c2)n1)[C@@H]1C[C@@H]2O[C@]2(C)CCC[C@H](C)[C@H](O)[C@@H](C)C(=O)C(C)(C)[C@@H](O)CC(=O)O1 :: 0.0
8) CC[C@H](C)[C@H](NC(=O)C12CC(NC)(C1)C2)C(=O)N(C)[C@H](C[C@@H](OC(C)=O)c1nc(C(=O)N[C@@H](Cc2ccccc2)C[C@H](C)C(=O)OC)cs1)C(C)C :: 0.0

## Task Please tell me: is the molecule CN(C)c1ccc(C=C2C(=O)NC(=O)NC2=O)cc1 at or over 60% in terms of growth?
## Result 1.0

----------
# Tested on: NCI-H226 lung
# test-protocol: NCI-60 one-dose screen, 48 h (100 = growth as untreated, 0 = no growth, -100 = all killed)
# setup-conditions: 10 µM unless noted
# Experimental: Growth inhibition of the NCI-H226 human Non-Small Cell Lung tumor cell line is measured as a screen for anti-cancer activity. Cells are grown in 96 well plates and exposed to the test compound for 48 hours. Compounds are tested at a single concentration, which is 10^-5 M for most compounds. The reported endpoint is percent growth (GI% or GIPRCNT), where numbers from 0 - 100% represent growth inhibition, and numbers from -100% - 0 represent cell death. […]
The panel holds about 83,000 compounds, 20% with a hit somewhere; the sample as a whole holds those more often.
observed-property: growth (%)
Lab book: enter the figure in %, no units written.

Use the examples below as a reference point.
1. N#CC(NC(=O)CCl)=C(Cl)Cl :: 70.8
2. Cc1cc(NC(=O)NCCCOc2ccc(N3C(N)=NC(N)=NC3(C)C)cc2Cl)ccc1S(=O)(=O)F :: 55.7
3. COc1ccc(C(C#N)C(C)=O)cc1 (stereo not drawn) :: 99.9
4. CC/C(=C(\c1ccc(OCCN2CCOCC2)cc1)c1ccc(OC(=O)Cc2ccccc2)cc1)c1ccc(Cl)cc1 :: 106
5. C[C@]12CC[C@H](O)C[C@@H]1CC[C@@H]1[C@@H]2CC[C@]2(C)OC(=O)CC[C@@H]12 :: 102
6. COC(=O)C1=CO[C@@H](C)[C@@H]2CN3CCc4c([nH]c5cc(OC)ccc45)[C@@H]3C[C@H]12 :: 94.5

## Task # query: growth of entry CCCCCCCCCCCCCCCCCC1OCC(COC(=O)O[C@@H](C(=O)O[C@H]2C[C@@]3(O)[C@@H](OC(=O)c4ccccc4)[C@@H]4[C@]5(OC(C)=O)CO[C@@H]5C[C@H](O)[C@@]4(C)C(=O)[C@H](OC(C)=O)C(=C2C)C3(C)C)[C@@H](NC(=O)c2ccccc2)c2ccccc2)O1 (stereo partly drawn)
## Result 53.4

## Task # query: growth of entry N#CC(N)c1ccccc1 (stereo not drawn)
## Result 100

## Task # query: growth of entry O=C(O)C(F)F
## Result 89.9

----------
# Test system: OVCAR-4 ovarian
# test-protocol: NCI-60 one-dose screen, 48 h (100 = growth as untreated, 0 = no growth, -100 = all killed)
# setup-conditions: 10 µM unless noted
The panel holds about 83,000 compounds, 20% with a hit somewhere; the sample as a whole holds those more often.
observed-property: growth (%)
Lab book: enter the figure in %, no units written.

Use the examples below as a reference point.
1. Cc1c(C)c(N)c(C)c(C)c1N :: 75.6
2. COc1ccc2c(c1)c(-c1nc(-c3c[nH]c4ncccc34)cs1)cn2CCCCN1CCOCC1 :: 50.8
3. O=NN(c1ccccc1)c1ccccc1 :: 110
4. CC12CCC3C(CCC4CC(O)CCC43C)C1CCC2=O (configuration not stated) :: 108
5. C[N+]1(CC#CC[N+]2(C)CCCC2)CCCC1 :: 105

## Task # query: growth of entry CC1=C(C)C(=O)O[C@@H]([C@](C)(O)[C@]2(O)CC[C@@]3(O)[C@@H]4C[C@H]5O[C@]56CC=CC(=O)[C@]6(C)[C@H]4CC[C@]23C)C1
## Result 7.99

## Task # query: growth of entry COc1c(O)cc2c(c1OC)-c1ccc(SC)c(=O)cc1C(NC(C)=O)CC2 (configuration not stated)
## Result 16.8

## Task # query: growth of entry CC[C@H](C)[C@H](NC(=O)[C@H]1CCCCN1C)C(=O)N(C)[C@H](C[C@@H](OC(C)=O)c1nc(C(=O)N[C@@H](Cc2ccccc2)C[C@H](C)C(=O)O)cs1)C(C)C
## Result 52.6

## Task # query: growth of entry O=c1c2ccccc2nc(-c2ccccc2Cl)n1-c1nnc(C(F)(F)F)s1
## Result 37.5

## Task # query: growth of entry CSc1cc(/C=C(\C)[C@@H]2C[C@@H]3O[C@]3(C)CCC[C@H](C)[C@H](O)[C@@H](C)C(=O)C(C)(C)[C@@H](O)CC(=O)O2)n(CCNC(=O)OC(C)(C)C)n1
## Result 82.4

## Task # query: growth of entry O=Cc1cn(Cc2ccccc2)c2ccccc12
## Result 55.1

## Task # query: growth of entry COc1cc(/C=C\[N+](=O)[O-])ccc1OCc1ccccc1
## Result 85.3

## Task # query: growth of entry C/C(=C(\c1ccc(OCCN2CCOCC2)cc1)c1ccc(OC(=O)Cc2ccccc2)cc1)c1ccc(Cl)cc1
## Result 98.5
